# RUN_DESCRIPTION: Pharmacokinetic assessment in dogs
# Assay type: in vivo
# CONDITION_SUMMARY: male, beagle, dog, plasma; dogs (n=3), means, 50 mg/kg bid oral; read-out: AUC (nM) (0-24 for dogs)
MEASURE_NAME: AUC
Hi, when you answer, please include the unit after the number. Thanks!

Query :: // AUC lookup, key: CCOC(=O)[C@]1(c2ccccc2)N=C(c2ccc(OC)cc2)N(Cc2ccccc2)[C@@H]1c1ccc(NCc2ccccc2)cc1 [TCH-165]
Result :: 19.8 µM·h

====

# RUN_DESCRIPTION: Pharmacokinetic assessment in CD-1 mice
# Type: in vivo
# CONDITION_SUMMARY: male, mouse, plasma; CD-1 mice, 100 mg/kg oral bid, trapezoidal method; read-out: mean AUC (0–16 h)
MEASURE_NAME: AUC(0-t) (µM·h)
Use µM·h as the unit, but write only the number.

Query :: So what's the measured AUC(0-t) for this one? CCOC(=O)[C@]1(c2ccccc2)N=C(c2ccc(OC)cc2)N(Cc2ccccc2)[C@@H]1c1ccc(NCc2ccccc2)cc1 [TCH-165]
Result :: 14
